Test system: HCT-116
Assay: NCI tumour cell line growth inhibition, 48 h
Calls of active or inactive are those of the source. No stated cut-off is given here; in the data, active = GI50 up to about 1.1 µM and inactive = higher.
Property Name: GI50

O=C1CCC2(CCC(=O)NC2=O)C(=O)N1 :: > 100 µM (inactive)
CCOC(=O)C1=C(OC(OCC)C([Se]c2ccccc2)C(C)C)CCC1 (stereo not given) :: 12.5 µM (inactive)
O=C1CCC(=O)N1n1c(Cc2ccccc2)n[nH]c1=O :: > 100 µM (inactive)
CCC(=O)NCCc1c[nH]c2ccc(OC)cc12 :: > 100 µM (inactive)
CCOC(=O)c1ccc(N[C@@H]2c3cc4c(cc3C(c3cc(OC)c(O)c(OC)c3)[C@H]3C(=O)OCC32)OCO4)cc1O (stereo not given in full) :: 0.505 µM (active)

// for each compound below, give its GI50
1. CC1=CCC[C@@H]2[C@@](C)(Cc3cc(O)ccc3O)[C@H](C)CC[C@@]12C
2. COC(=O)c1c(OC(C)=O)ccc2c1c1c(n2Cc2ccccc2)C(=O)c2ccccc2C1=O
3. N=C1OC(CN2CCN(c3ccccc3)CC2)CN1C(=S)Nc1ccccc1 (stereo not given)
4. CC/C(Cl)=N\OC(=O)Nc1ccccc1OC(F)(F)F
5. COC1=CC(=O)c2ccccc2C1(C)C1=NC(C)(C)CO1 (stereo not given)
6. CS(=O)(=O)OCC1=C(COS(C)(=O)=O)C(=O)c2c(O)ccc(O)c2C1=O
7. CCNC(=O)NNc1ncnc2c1c(-c1ccc(Cl)cc1)cn2-c1ccc(C)cc1
8. CCCCCN(CCCCC)CC(C)(C)C(O)c1ccc(OC)c2ccccc12 (stereo not given)

Found:
1. 5.13 µM (inactive)
2. 15.7 µM (inactive)
3. > 100 µM (inactive)
4. 7.08 µM (inactive)
5. > 100 µM (inactive)
6. > 100 µM (inactive)
7. 14.9 µM (inactive)
8. 12.9 µM (inactive)

Hello, I would appreciate it if you could give GI50 for each entry below.
1. CC1(C)CCc2cc3c(cc2O1)OC(C)(C)CC3=O
2. COc1ccc2c3c([nH]c2c1CC=C(C)C)C(=O)C=C(C)C3=O
3. Cc1ccc(-c2nc(-c3cnccn3)n(C3OC(CO)C(O)C(O)C3O)n2)cc1 (stereo not given)
4. Cc1csc2nc(-c3ccc([N+](=O)[O-])cc3)c(/C=N/N=C(N)N)n12

Found:
1. 71.1 µM (inactive)
2. 16.2 µM (inactive)
3. > 100 µM (inactive)
4. 1.81 µM (inactive)

# map each compound to its GI50
1. COc1cc([C@@H]2c3cc4c(cc3[C@@H](OC(=O)c3ccc(N)cc3)C3COC(=O)[C@@H]32)OCO4)cc(OC)c1O (stereo not given in full)
2. COc1cc2ccnc(-c3n[nH]c4cc(OC)c(OC)cc34)c2cc1OC
3. O=C(CCC(=O)Nc1ccccc1C(F)(F)F)N/N=C1\C(=N\NC(=O)CCC(=O)Nc2ccccc2C(F)(F)F)C(c2ccc3c(c2)OCO3)Oc2ccccc21 (stereo not given)

Found:
1: 4.45 µM (inactive); 2: > 100 µM (inactive); 3: 5.9 µM (inactive)
